Provenance of the data: ChEMBL document CHEMBL3351472

- tgt: Vitamin D3 receptor (Rattus norvegicus) (UniProt P13053)
- Sequence (P13053 whole entry): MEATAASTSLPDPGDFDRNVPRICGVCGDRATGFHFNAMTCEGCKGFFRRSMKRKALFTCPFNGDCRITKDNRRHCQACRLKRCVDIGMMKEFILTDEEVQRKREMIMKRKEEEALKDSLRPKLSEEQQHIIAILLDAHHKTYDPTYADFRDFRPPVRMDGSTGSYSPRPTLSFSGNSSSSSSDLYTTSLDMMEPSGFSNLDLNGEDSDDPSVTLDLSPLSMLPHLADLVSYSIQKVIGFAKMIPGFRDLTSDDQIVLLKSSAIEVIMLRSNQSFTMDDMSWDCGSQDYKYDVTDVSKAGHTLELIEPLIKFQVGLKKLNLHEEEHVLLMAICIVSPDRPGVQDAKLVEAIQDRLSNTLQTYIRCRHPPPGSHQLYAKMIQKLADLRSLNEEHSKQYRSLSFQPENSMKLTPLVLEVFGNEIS
- experiment: Ratio of 1alpha,25-(OH)2D3 Ki to compound Ki for full-length recombinant rat vitamin D receptor after 30 mins by liquid scintillation counting
measured parameter: Ratio Ki
Numbers only.

Examples with answers:
test smiles	Ratio Ki
C=C1CC/C(=C\C=C2/CCC[C@]3(C)[C@@H]([C@@H](C)CCCC(C)(C)O)CC[C@@H]23)C[C@H]1O	0.1
C=C1CC/C(=C/C=C2\CCC[C@]3(C)[C@@H]([C@@H](C)CCCC(C)(C)O)CC[C@@H]23)C(=C)[C@H]1O	0.33
C=C1CC/C(=C/C=C2\CCC[C@]3(C)[C@@H]([C@@H](C)CCCC(C)(C)O)CC[C@@H]23)C[C@H]1O	0.5
C=C1CC/C(=C\C=C2/CCC[C@]3(C)[C@@H]([C@H](C)CCCC(C)(C)O)CC[C@@H]23)C[C@H]1O	0.02
C=C1CC/C(=C/C=C2\CCC[C@]3(C)[C@@H]([C@H](C)CCCC(C)(C)O)CC[C@@H]23)C(=C)[C@H]1O	0.25

Below are 2 molecules. Give each one its Ratio Ki.
1. C=C1CC(=C)[C@H](O)C/C1=C/C=C1\CCC[C@]2(C)[C@@H]([C@H](C)CCCC(C)(C)O)CC[C@@H]12
2. C=C1CC(=C)[C@H](O)C/C1=C/C=C1\CCC[C@]2(C)[C@@H]([C@@H](C)CCCC(C)(C)O)CC[C@@H]12

1. 0.05
2. 0.33
